- target-system: Nitric oxide synthase 1 (Rattus norvegicus, UniProt P29476)
- Sequence (P29476 whole entry): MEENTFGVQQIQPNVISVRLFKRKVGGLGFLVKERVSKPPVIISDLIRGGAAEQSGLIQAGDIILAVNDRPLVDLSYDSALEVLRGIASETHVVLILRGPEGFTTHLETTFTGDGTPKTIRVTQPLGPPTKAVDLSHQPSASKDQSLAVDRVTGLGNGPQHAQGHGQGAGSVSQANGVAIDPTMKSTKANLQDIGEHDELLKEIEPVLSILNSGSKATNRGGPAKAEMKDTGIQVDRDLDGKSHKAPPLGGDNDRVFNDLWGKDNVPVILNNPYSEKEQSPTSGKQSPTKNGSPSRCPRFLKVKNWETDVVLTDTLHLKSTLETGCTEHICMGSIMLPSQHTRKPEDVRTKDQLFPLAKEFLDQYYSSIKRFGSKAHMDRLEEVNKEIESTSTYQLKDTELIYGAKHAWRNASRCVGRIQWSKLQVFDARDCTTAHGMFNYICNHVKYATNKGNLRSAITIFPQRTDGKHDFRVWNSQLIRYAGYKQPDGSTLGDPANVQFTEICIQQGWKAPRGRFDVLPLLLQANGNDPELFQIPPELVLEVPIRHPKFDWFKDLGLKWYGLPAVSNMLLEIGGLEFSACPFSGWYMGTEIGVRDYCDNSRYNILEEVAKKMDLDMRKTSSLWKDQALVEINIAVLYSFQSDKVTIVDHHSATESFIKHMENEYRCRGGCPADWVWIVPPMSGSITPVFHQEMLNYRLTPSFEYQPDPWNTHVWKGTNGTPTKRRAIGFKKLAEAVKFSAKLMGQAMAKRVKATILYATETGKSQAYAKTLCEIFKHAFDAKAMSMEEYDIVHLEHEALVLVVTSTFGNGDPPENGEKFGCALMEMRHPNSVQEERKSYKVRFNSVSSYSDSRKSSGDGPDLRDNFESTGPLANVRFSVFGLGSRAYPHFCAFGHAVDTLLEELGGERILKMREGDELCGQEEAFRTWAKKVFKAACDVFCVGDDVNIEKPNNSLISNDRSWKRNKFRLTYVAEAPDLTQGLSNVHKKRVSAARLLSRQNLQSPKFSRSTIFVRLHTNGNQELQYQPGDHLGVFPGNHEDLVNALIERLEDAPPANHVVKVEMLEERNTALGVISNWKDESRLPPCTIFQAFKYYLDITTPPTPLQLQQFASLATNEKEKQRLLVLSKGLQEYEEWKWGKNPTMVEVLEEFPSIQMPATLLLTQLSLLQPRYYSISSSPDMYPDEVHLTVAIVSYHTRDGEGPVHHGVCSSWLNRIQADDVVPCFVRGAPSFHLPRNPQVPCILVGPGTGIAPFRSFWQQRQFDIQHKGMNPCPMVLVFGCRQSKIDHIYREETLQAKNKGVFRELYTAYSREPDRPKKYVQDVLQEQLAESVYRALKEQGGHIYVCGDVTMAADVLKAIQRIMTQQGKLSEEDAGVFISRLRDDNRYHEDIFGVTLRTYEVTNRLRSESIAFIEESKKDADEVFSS
- method-summary: Inhibition against neuronal Nitric Oxide Synthase(nNOS)
pKi: −log10 of the molar value.
Reported pKi maps to class as: Low = under 4, Mid = from 4 up to 5, High = 5 and over

- CCCCC/N=C(\N)n1cccn1: Mid

QUERY: Note: place this compound into its band. Item: CC(C)C/N=C(\N)n1cccn1
RESULT: Mid

QUERY: Note: place this compound into its band. Item: Cc1cc(C)n(C(=N)N)n1
RESULT: Low

QUERY: Note: place this compound into its band. Item: NCCCC/N=C(\N)n1cccn1
RESULT: High

---

- target-system: UniProt:P29477
- Sequence (P29477 whole entry): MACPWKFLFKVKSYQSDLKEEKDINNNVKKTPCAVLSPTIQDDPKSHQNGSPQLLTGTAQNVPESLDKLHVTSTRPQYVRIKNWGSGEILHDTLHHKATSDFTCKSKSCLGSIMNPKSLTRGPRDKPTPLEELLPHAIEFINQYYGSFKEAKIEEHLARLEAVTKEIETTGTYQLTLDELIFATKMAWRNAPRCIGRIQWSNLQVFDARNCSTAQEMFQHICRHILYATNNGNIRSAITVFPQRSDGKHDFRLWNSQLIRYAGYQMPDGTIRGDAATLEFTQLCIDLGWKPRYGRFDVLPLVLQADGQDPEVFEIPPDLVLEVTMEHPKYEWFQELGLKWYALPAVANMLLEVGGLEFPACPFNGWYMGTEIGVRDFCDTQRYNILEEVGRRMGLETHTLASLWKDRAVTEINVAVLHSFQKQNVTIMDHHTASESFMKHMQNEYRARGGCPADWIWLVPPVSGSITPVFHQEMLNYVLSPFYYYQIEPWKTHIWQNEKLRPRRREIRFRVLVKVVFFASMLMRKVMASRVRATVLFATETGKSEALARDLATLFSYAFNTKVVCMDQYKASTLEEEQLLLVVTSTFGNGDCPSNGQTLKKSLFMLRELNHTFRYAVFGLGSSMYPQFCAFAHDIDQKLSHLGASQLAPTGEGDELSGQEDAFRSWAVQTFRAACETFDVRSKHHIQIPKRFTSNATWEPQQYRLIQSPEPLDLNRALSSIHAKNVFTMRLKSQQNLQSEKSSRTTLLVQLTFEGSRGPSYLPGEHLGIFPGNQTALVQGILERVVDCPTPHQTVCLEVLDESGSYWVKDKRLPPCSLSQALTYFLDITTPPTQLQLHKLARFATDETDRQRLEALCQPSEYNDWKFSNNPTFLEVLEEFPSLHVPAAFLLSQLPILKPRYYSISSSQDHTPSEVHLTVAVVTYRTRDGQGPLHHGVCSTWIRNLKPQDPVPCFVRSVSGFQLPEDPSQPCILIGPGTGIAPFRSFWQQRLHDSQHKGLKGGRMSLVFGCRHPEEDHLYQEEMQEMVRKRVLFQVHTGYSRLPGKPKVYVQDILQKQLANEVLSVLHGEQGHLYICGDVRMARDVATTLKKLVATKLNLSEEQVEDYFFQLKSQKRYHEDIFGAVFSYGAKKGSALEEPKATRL
- method-summary: Inhibition against induced Nitric Oxide Synthase(iNOS)
pKi: −log10 of the molar value.
We use 5 as the dividing line for pKi: on or above the line is T, below is F.

* Cc1cnn(C(=N)N)c1 | T
* N=C(NC1CC1)n1cccn1 | F
* N=C(Nc1cccc(CN)c1)c1ccco1 | T
* NCCCC/N=C(\N)n1cccn1 | F
* Cc1cc(C)n(C(=N)N)n1 | F

QUERY: Would you say CCCC/N=C(\N)n1cccn1 shows pKi at minimum 5?
RESULT: F

QUERY: Would you say CCCCC/N=C(\N)n1cccn1 shows pKi at minimum 5?
RESULT: F

QUERY: Would you say CCCC/N=C(\N)NCCC shows pKi at minimum 5?
RESULT: F

QUERY: Would you say CC(C)C/N=C(\N)n1cccn1 shows pKi at minimum 5?
RESULT: F

QUERY: Would you say N=C(Nc1cccc(CN)c1)c1cccs1 shows pKi at minimum 5?
RESULT: T

QUERY: Would you say CCC/N=C(\N)n1cccn1 shows pKi at minimum 5?
RESULT: T

QUERY: Would you say N=C(N)n1cccn1 shows pKi at minimum 5?
RESULT: T

QUERY: Would you say N=C(NCC1CC1)n1cccn1 shows pKi at minimum 5?
RESULT: F

---

- target-system: Nitric oxide synthase 1 (Rattus norvegicus, UniProt P29476)
- method-summary: Time dependent inhibition against neuronal Nitric Oxide Synthase(nNOS)
readout: pKi
Kindly note that pKi refers to -log10 of the concentration in mol/L and answer with the value alone.

QUERY: For CCC/N=C(\N)n1cccn1 , what is its reported pKi?
RESULT: 4.48

---

Measured pKi, listed per entry.
- target-system: Nitric oxide synthase 3 (Bos taurus, UniProt P29473)
- Sequence (P29473 whole entry): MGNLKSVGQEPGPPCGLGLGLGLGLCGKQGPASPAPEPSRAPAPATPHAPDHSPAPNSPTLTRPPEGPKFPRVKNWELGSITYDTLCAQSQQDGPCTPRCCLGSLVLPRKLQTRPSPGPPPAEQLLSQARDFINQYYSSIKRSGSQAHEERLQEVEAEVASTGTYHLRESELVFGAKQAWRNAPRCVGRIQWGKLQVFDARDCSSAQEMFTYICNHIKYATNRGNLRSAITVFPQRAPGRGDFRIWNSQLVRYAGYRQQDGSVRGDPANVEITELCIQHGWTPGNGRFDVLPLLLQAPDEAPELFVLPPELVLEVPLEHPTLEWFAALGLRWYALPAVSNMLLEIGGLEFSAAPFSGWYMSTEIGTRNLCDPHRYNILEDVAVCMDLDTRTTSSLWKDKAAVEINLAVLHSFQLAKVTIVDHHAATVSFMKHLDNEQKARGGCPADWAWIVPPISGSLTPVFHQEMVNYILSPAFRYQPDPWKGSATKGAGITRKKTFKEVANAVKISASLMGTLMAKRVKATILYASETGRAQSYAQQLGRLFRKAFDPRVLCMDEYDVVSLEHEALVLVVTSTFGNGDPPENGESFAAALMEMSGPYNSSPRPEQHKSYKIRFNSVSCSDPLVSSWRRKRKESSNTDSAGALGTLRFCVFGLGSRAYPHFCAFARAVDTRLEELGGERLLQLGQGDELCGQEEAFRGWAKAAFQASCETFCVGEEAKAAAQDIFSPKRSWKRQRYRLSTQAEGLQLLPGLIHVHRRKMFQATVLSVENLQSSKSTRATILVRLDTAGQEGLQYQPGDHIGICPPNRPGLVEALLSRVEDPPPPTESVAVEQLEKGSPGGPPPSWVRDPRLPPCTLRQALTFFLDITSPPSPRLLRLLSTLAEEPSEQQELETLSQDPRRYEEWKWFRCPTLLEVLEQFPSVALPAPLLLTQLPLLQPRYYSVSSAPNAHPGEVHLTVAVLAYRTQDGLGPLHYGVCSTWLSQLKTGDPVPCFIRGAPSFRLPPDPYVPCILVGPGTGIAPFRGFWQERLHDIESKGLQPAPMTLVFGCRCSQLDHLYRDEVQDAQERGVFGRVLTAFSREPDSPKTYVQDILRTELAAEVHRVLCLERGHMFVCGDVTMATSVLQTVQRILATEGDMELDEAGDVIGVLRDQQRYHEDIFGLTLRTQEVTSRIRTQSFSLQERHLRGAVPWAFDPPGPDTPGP
Kindly note that pKi refers to -log10 of the concentration in mol/L and answer with the value alone.

Example entries begin here.
- N=C(Nc1cccc(CN)c1)c1cccs1: 6.34
- N=C(NC1CC1)n1cccn1: 3.92
- CCCCC/N=C(\N)n1cccn1: 3.15
- N=C(N)n1cccn1: 6.30

QUERY: For CCCC/N=C(\N)n1cccn1 , what is its reported pKi?
RESULT: 4.60

---

Measured Ratio, listed per entry.
- method-summary: Selectivity for neuronal (nNOS) and endothelial Nitric Oxide Synthase(eNOS)
- Parameters: reference not given here

- CCCC/N=C(\N)NCCC: 0.9
- CCC/N=C(\N)n1cccn1: 3
- CCCC/N=C(\N)n1cccn1: 1.8
- Cc1cnn(C(=N)N)c1: 16
- CC(C)C/N=C(\N)n1cccn1: 4
- NCCCC/N=C(\N)n1cccn1: 77
- N=C(N)n1cccn1: 1.3
- Cc1ccn(C(=N)N)n1: 13

QUERY: For CCCCC/N=C(\N)n1cccn1 , what is its reported Ratio?
RESULT: 14

---

- method-summary: Selectivity for neuronal(nNOS) and induced Nitric Oxide Synthase(iNOS)
- Set-up: reference not given here
We use 2 as the dividing line for Ratio: on or above the line is y, below is n.

QUERY: Would you say CCCC/N=C(\N)NCCC shows Ratio at minimum 2?
RESULT: n

QUERY: Would you say CC(C)C/N=C(\N)n1cccn1 shows Ratio at minimum 2?
RESULT: y

QUERY: Would you say NCCCC/N=C(\N)n1cccn1 shows Ratio at minimum 2?
RESULT: y

---

- method-summary: Selectivity for neuronal (nNOS) and endothelial Nitric Oxide Synthase(eNOS)
- Parameters: reference not given here
Measured Ratio, listed per entry.
Reply briefly: the number, and no unit.

Example entries begin here.
- N=C(NCC1CC1)n1cccn1: 8
- N=C(NC1CC1)n1cccn1: 2.4
- Cc1cc(C)n(C(=N)N)n1: 4.3

--- query ---
QUERY: For N=C(Nc1cccc(CN)c1)n1cccn1 , what is its reported Ratio?
RESULT: 100

---

- target-system: Nitric oxide synthase 1 (Rattus norvegicus, UniProt P29476)
- method-summary: Inhibition against neuronal Nitric Oxide Synthase(nNOS)
Rule: Ki below 10 µM gives 1. Equal to or above 10 µM gives -1.

* Cc1ccn(C(=N)N)n1 | 1
* Cc1cnn(C(=N)N)c1 | -1
* CCC/N=C(\N)n1cccn1 | 1

QUERY: Criterion: Ki strictly below 10 µM. Is it met by N=C(N)n1cccn1 ?
RESULT: 1

QUERY: Criterion: Ki strictly below 10 µM. Is it met by CCCC/N=C(\N)n1cccn1 ?
RESULT: -1

QUERY: Criterion: Ki strictly below 10 µM. Is it met by CCCC/N=C(\N)NCCC ?
RESULT: -1

QUERY: Criterion: Ki strictly below 10 µM. Is it met by N=C(Nc1cccc(CN)c1)n1cccn1 ?
RESULT: 1

QUERY: Criterion: Ki strictly below 10 µM. Is it met by N=C(NC1CC1)n1cccn1 ?
RESULT: -1

---

- method-summary: Selectivity for neuronal(nNOS) and induced Nitric Oxide Synthase(iNOS)
- Parameters: reference not given here
readout: Ratio

Example entries begin here.
* Cc1ccn(C(=N)N)n1 | 1.1
* N=C(Nc1cccc(CN)c1)n1cccn1 | 6

QUERY: For N=C(N)n1cccn1 , what is its reported Ratio?
RESULT: 1.8

QUERY: For N=C(NCC1CC1)n1cccn1 , what is its reported Ratio?
RESULT: 2.2

QUERY: For Cc1cc(C)n(C(=N)N)n1 , what is its reported Ratio?
RESULT: 2.1

QUERY: For N=C(NC1CC1)n1cccn1 , what is its reported Ratio?
RESULT: 1.6

QUERY: For Cc1cnn(C(=N)N)c1 , what is its reported Ratio?
RESULT: 0.3

QUERY: For CCC/N=C(\N)n1cccn1 , what is its reported Ratio?
RESULT: 1.7

QUERY: For CCCC/N=C(\N)n1cccn1 , what is its reported Ratio?
RESULT: 1

QUERY: For CCCCC/N=C(\N)n1cccn1 , what is its reported Ratio?
RESULT: 0.8
